Molecular target: Receptor tyrosine-protein kinase erbB-2 (Homo sapiens, UniProt P04626)
Sequence (P04626 whole entry): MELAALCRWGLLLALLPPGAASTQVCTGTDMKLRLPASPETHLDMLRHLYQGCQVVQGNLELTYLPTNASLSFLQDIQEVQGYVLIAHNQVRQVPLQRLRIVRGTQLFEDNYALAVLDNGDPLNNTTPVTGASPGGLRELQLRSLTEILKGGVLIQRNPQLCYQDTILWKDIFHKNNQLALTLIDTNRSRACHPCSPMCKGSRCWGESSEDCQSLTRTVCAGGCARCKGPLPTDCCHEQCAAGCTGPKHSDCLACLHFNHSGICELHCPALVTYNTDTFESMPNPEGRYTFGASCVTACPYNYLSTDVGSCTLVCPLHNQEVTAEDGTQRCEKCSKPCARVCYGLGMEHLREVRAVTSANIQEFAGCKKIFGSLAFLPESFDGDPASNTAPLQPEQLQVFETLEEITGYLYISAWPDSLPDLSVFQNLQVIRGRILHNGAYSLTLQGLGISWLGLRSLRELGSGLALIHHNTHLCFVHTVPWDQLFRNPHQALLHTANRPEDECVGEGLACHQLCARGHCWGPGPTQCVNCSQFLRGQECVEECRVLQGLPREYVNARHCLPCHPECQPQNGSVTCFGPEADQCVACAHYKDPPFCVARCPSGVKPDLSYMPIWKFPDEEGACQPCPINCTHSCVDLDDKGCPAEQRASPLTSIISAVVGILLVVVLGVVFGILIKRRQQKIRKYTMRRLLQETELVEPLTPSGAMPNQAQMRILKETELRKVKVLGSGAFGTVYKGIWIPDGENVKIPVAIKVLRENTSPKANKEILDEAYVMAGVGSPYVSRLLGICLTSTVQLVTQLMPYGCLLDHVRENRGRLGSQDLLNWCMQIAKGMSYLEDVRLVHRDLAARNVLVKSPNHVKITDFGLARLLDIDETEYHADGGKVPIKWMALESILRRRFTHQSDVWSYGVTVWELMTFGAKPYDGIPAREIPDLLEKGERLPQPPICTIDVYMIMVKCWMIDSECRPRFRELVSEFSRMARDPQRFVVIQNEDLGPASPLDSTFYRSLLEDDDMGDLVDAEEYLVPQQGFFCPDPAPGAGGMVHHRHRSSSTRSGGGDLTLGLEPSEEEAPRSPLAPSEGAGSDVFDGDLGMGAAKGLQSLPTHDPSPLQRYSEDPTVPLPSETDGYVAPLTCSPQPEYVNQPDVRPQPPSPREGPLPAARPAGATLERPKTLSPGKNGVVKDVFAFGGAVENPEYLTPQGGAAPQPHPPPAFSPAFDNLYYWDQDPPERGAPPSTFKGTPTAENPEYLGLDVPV
Assay: Inhibition of erbB2 expressed in Sf9 cells
measurement.label: pIC50
Note on pIC50: it is the negative log10 of concentration, concentration in mol/L.

Below, each entry is followed by its recorded pIC50 result.
COCCOc1ccc2ncnc(Nc3ccc(OC4CCN(C(=O)C5CCCC5)CC4)c(C)c3)c2c1 = 7.36
COCCOc1cc2ncnc(Nc3ccc(OC4CCN(C(=O)Nc5c(F)cccc5F)CC4)c(C)c3)c2cc1OCCOC = 6.64
COCC(=O)NCC#Cc1ccc2ncnc(Nc3ccc(OC4CCN(C(=O)C5CCC5)CC4)c(C)c3)c2c1 = 6.82

Now, please, on to the next compound.
Prompt: Any idea what pIC50 was measured for `COCC(=O)NCC#Cc1ccc2ncnc(Nc3ccc(Oc4ccc(C(=O)NCC(C)(C)C)cc4)c(C)c3)c2c1` ?
Completion: 6.85

Where do these numbers come from? They come from ChEMBL document CHEMBL1144645.
